- method: NCI Yeast Anticancer Drug Screen. Data for the mlh1 rad18 strain (AID 175)
- measurementSetup: S. cerevisiae mlh1 rad18 strain growth inhibition, hits give high values; at 50.0 µM unless noted
This is part of a sample that, as a whole, favours compounds with a hit. Of some 79,000 tested, about 15% had one in any assay.
readout: growth inhibition (%)
Use % as the unit, but write only the number.

Reference set, count: 2
O=C1CCC(c2nc3ccccc3[nH]2)N1Cc1ccccc1 (centres undefined) :: 18.9
O=C(Cn1c(=O)ccn(C2OC(CO)C(O)C2F)c1=O)c1ccc(F)cc1 (centres undefined) :: 3.1

Exercise: Return reported growth inhibition; argument: `CCOC(=O)C(=CNc1ccc(OC)cc1[N+](=O)[O-])C(=O)OCC`
Key: 15.1

Exercise: Note, next up: CCCCCCCCCCCC(O)C(C)(C)C (centres undefined)
Key: 10.3

Exercise: Note, next up: `CC(=O)OCc1c(COC(C)=O)c(-c2ccc(Cl)cc2)n2c1CCC2`
Key: 23.9

Exercise: Note, next up: `O=C(NCCCOC(=O)CCCCCCCCC(=O)OCCCNC(=O)NC(=O)c1c[nH]c(=O)[nH]c1=O)NC(=O)c1c[nH]c(=O)[nH]c1=O`
Key: -14.9

Exercise: Note, next up: CC(C)CCCC(C)C1CCC2C3CC=C4CC(OC(=O)Nc5ccc(S(=O)(=O)NC6CCCCC6)cc5)CCC4(C)C3CCC12C (centres undefined)
Key: 8.25

Exercise: Note, next up: `O=C(O)c1cc([N+](=O)[O-])cc([N+](=O)[O-])c1-c1ccccc1`
Key: -10

Exercise: Note, next up: O=[N+]([O-])C(c1ccccc1)C(c1ccccc1)C(c1ccccc1)[N+](=O)[O-] (centres undefined)
Key: 10

These data points were gathered from PubChem BioAssay (NCI).
